# ASSAY_PROTOCOL: BSK_SAg_PBMCCytotoxicity: PBMC Cytotoxicity Assessment in the BioMAP Diversity Plus: SAg Assay (AID 2283093);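 note: PBMC viability measured as Alamar Blue reduction fluorescence at 546/580 nm; fitted both ways against DMSO so a hit may be loss or gain of signal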
# RUN_CONDITIONS: primary human HUVEC with PBMC
Active and inactive are the calls of the source. Rule for the calls: active = hit-call score of the fitted dose curve at least 0.9, where 1 is the maximum; inactive = score below 0.9.
Hi! Could you answer with just one of these? 1.0 for active, 0.0 for inactive

Examples from the recorded data:
# outcome recorded in this test, key = "CC1=CC=C(C(C)C)CC1" 0.0

# outcome recorded in this test, key = "C=CC(=O)NCOCCCC" 0.0

# outcome recorded in this test, key = "Clc1cc(Cl)c(Cl)c(Cl)c1Cl" 0.0

# outcome recorded in this test, key = "Oc1c(Cl)cc(Cl)c(Cl)c1Cl" 1.0

# outcome recorded in this test, key = CCCC(C)C(=O)OCC (stereo unspecified) 0.0

Others:
# outcome recorded in this test, key = "C=CC(=O)NC(C)(C)C" 0.0

---

# ASSAY_PROTOCOL: BSK_KF3CT_SRB: Viability Assessment in the BioMAP Diversity Plus: KF3CT Assay (AID 2283069);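 note: total protein by sulforhodamine B staining as a cytotoxicity measure; read 24 h after compound addition; fitted for both signal gain and loss against DMSO baseline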
# RUN_CONDITIONS: primary human keratinocytes with fibroblasts
The source made the active and inactive calls. Rule for the calls: active = hit-call score of the fitted dose curve at least 0.9, where 1 is the maximum; inactive = score below 0.9.
EXPERIMENTAL_READOUT: outcome

Given item "O=C(Cl)c1c(Cl)c(Cl)c(C(=O)Cl)c(Cl)c1Cl" , the value recorded as its outcome is inactive

Given item "COc1ccc(C(=O)c2ccccc2)c(O)c1" , the value recorded as its outcome is inactive

Given item CCCC(C)C(=O)OCC (stereo not drawn) , the value recorded as its outcome is inactive

---

# TARGET_OF_ASSAY: Glucocorticoid receptor (Homo sapiens) (UniProt P04150)
# Sequence (P04150 whole entry, looked up): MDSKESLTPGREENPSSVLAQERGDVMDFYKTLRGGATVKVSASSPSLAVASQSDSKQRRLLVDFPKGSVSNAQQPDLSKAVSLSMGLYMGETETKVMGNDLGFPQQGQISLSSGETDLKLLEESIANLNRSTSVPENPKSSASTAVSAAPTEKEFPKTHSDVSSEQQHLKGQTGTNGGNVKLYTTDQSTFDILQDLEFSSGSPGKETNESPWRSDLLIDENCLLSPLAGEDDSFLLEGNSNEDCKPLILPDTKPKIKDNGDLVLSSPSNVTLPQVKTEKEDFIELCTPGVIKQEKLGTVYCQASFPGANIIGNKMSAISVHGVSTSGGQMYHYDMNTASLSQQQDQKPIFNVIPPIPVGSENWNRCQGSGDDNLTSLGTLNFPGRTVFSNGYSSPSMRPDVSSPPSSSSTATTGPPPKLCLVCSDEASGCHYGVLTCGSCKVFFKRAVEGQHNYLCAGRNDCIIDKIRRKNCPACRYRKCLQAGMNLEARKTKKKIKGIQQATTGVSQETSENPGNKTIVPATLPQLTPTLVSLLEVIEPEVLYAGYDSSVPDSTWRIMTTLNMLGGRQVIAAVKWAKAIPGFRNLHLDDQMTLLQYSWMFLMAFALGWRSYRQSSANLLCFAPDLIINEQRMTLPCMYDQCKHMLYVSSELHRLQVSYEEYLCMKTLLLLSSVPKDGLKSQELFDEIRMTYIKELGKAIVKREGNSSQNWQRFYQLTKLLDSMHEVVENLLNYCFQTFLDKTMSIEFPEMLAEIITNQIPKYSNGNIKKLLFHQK
# ASSAY_PROTOCOL: ATG_GR_TRANS: Attagene TRANS-FACTORIAL HepG2 Assay for human Glucocorticoid Receptor (GR) (AID 2282978);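 note: activators score as hits since higher reporter transcript over DMSO is fitted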
# RUN_CONDITIONS: HepG2 Attagene TRANS GR reporter, mRNA transcription
Records with an inconclusive call do not appear. The source made the active and inactive calls. Rule for the calls: active = hit-call score of the fitted dose curve at least 0.9, where 1 is the maximum; inconclusive = response in the unintended direction; inactive = score below 0.9.
EXPERIMENTAL_READOUT: outcome

// known answers, use as guide
Given item "CCCCCCCCCC(C)=O" , the value recorded as its outcome is inactive

Given item "O=C(OCc1ccccc1)c1ccc(O)cc1" , the value recorded as its outcome is inactive

Given item "Cc1c(Cl)cccc1Cl" , the value recorded as its outcome is inactive

Given item CC1=CC(C)C(C=O)CC1 (configuration not stated) , the value recorded as its outcome is inactive

Given item "CC(C)=CCl" , the value recorded as its outcome is inactive

Others:
Given item "c1ccc(-c2nc3ccccc3[nH]2)cc1" , the value recorded as its outcome is inactive

Given item COC(=O)CC(C)CCC=C(C)C (configuration not stated) , the value recorded as its outcome is inactive

---

# ASSAY_PROTOCOL: ATG_ERE_CIS: Attagene CIS-FACTORIAL HepG2 Assay for Estrogen Response Element (ERE) (AID 2282940)
# RUN_CONDITIONS: HepG2 ERE cis-reporter, Attagene RNA transcript; actives raise or lower the signal
The source made the active and inactive calls. How the source made its calls: active means hit-call score of the fitted dose curve at least 0.9, where 1 is the maximum; inactive means score below 0.9.
Hi! Could you answer with just one of these? Yes = active, No = inactive

Examples from the recorded data:
# outcome recorded in this test, key = "CC=CC(=O)OCC(C)C" No

# outcome recorded in this test, key = "CCCCOCCOC(=O)COc1ccc(Cl)cc1Cl" No

# outcome recorded in this test, key = "Cc1ccc([N+](=O)[O-])cc1N" No

# outcome recorded in this test, key = "CCCCCC1=CCCC1=O" No

# outcome recorded in this test, key = "CCCCNS(=O)(=O)c1ccccc1" No

# outcome recorded in this test, key = "N=C1C=CC(=C(c2ccc(N)cc2)c2ccc(N)cc2)C=C1" No

Others:
# outcome recorded in this test, key = "CC(=O)OC1CCCCC1" No

# outcome recorded in this test, key = "CCCCC(=O)O" No

# outcome recorded in this test, key = "C=CCNCC=C" No

# outcome recorded in this test, key = CC(=O)/C=C/C1C(C)=CCCC1(C)C (stereo not given) Yes

# outcome recorded in this test, key = "O=C(Oc1ccccc1)c1ccccc1C(=O)Oc1ccccc1" No

# outcome recorded in this test, key = CC1=NN(c2ccc(S(=O)(=O)O)cc2)C(=O)C1N=Nc1ccccc1 (stereo not given) No

# outcome recorded in this test, key = "CC(=O)c1ccccc1O" No

# outcome recorded in this test, key = "CC/C=C\C/C=C\C/C=C\CCCCCCCC(=O)OC" Yes

# outcome recorded in this test, key = "CCc1cccc(CC)c1" No

---

# TARGET_OF_ASSAY: Hepatocyte nuclear factor 3-beta (Homo sapiens) (UniProt Q9Y261)
# Sequence (Q9Y261 whole entry, looked up): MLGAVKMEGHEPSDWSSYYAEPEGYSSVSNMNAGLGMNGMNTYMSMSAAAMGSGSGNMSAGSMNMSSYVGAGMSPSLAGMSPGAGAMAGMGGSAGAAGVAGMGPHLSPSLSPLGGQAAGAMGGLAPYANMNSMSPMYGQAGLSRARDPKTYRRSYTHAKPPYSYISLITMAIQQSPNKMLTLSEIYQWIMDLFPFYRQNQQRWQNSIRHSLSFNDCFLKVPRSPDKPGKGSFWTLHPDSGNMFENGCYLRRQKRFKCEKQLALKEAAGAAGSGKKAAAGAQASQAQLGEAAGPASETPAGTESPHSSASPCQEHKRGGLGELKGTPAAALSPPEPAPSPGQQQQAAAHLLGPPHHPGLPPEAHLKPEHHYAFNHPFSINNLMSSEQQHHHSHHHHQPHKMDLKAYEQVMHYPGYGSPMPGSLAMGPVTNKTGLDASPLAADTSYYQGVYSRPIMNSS
# ASSAY_PROTOCOL: ATG_FoxA2_CIS: Attagene CIS-FACTORIAL HepG2 Assay for human Forkhead box A2 (FOXA2) (AID 2282942)
# RUN_CONDITIONS: HepG2 cis-reporter transcription factor activity, 24 h; actives raise or lower the signal
Calls of active or inactive are those of the source. How the source made its calls: active means hit-call score of the fitted dose curve at least 0.9, where 1 is the maximum; inactive means score below 0.9.
EXPERIMENTAL_READOUT: outcome

// known answers, use as guide
Given item CCOC(=O)C1=NN(c2ccc(Cl)cc2Cl)C(C)(C(=O)OCC)C1 (stereo unspecified) , the value recorded as its outcome is inactive

Given item "COc1cc(C)ccc1O" , the value recorded as its outcome is inactive

Given item "CC/C=C\CCOC(=O)c1ccccc1O" , the value recorded as its outcome is inactive

Given item "Nc1ccc(O)c([N+](=O)[O-])c1" , the value recorded as its outcome is inactive

Given item "C=C(C)C(=O)OCCCCCCCCCCCC" , the value recorded as its outcome is inactive

Given item "CC(=O)OCc1ccccc1" , the value recorded as its outcome is inactive

Given item "NC(=O)Nc1ccccc1" , the value recorded as its outcome is inactive

Given item CCC1(C)C(=O)N(Cl)C(=O)N1Cl (stereo unspecified) , the value recorded as its outcome is inactive

Others:
Given item "CC(C)(C)C1CCC(=O)CC1" , the value recorded as its outcome is inactive

Given item "CCNc1nc(NC(C)(C)C)nc(OC)n1" , the value recorded as its outcome is inactive

Given item "N#Cc1ccc(C(c2ccc(C#N)cc2)n2cncn2)cc1" , the value recorded as its outcome is inactive

Given item "CCCCCCCCCCCCCc1ccccc1" , the value recorded as its outcome is inactive

Given item "CC1=CC=C(C(C)C)CC1" , the value recorded as its outcome is inactive

Given item "Nc1ncnc2nc[nH]c12" , the value recorded as its outcome is inactive

Given item "C=C(C)C(=O)OCCOC(=O)C(=C)C" , the value recorded as its outcome is inactive

---

# ASSAY_PROTOCOL: ATG_ISRE_CIS: Attagene CIS-FACTORIAL HepG2 Assay for human Interferon Regulatory Factor 1 (IRF1) binding to an Interferon-Stimulated Response Element (ISRE) (AID 2282948)
# RUN_CONDITIONS: HepG2 ISRE cis-reporter (Attagene), mRNA transcription readout; actives raise or lower the signal
The source made the active and inactive calls. How the source made its calls: active means hit-call score of the fitted dose curve at least 0.9, where 1 is the maximum; inactive means score below 0.9.
Hi! Could you answer with just one of these? 1 (yes) for active, 0 (no) for inactive

# outcome recorded in this test, key = "CCCCCOC(=O)CCCCC" 0 (no)

# outcome recorded in this test, key = CCC1(C)C(=O)N(Cl)C(=O)N1Cl (stereo not given) 1 (yes)

# outcome recorded in this test, key = CCC(C)c1ccccc1 (stereo not given) 0 (no)

# outcome recorded in this test, key = "NNS(=O)(=O)c1ccc(Oc2ccc(S(=O)(=O)NN)cc2)cc1" 0 (no)

Others:
# outcome recorded in this test, key = "CCOC(=O)CC(=O)c1ccccc1" 0 (no)

# outcome recorded in this test, key = "O=C(OCCc1ccccc1)c1ccccc1" 0 (no)

# outcome recorded in this test, key = CCCC(CC)c1ccccc1 (stereo not given) 0 (no)

---

# ASSAY_PROTOCOL: CCTE_Shafer_MEA_acute_burst_percentage_std: CCTE's Neural Acute Assay for Standard Deviation of Burst Percentage, Shafer Lab (AID 2284018);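 note: fitted in the negative direction so actives lower burst percentage SD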
Calls of active or inactive are those of the source. The calls were made as follows: active = hit-call score of the fitted dose curve at least 0.9, where 1 is the maximum; inactive = score below 0.9. Peptide text beside a SMILES is read from it.
Hi! Could you answer with just one of these? class 1 for active, class 0 for inactive

# outcome recorded in this test, key = "CC(CCC(=O)O)(c1ccc(O)cc1)c1ccc(O)cc1" class 0

# outcome recorded in this test, key = "Oc1ccccc1Cc1ccccc1O" class 1

# outcome recorded in this test, key = COC(=O)[C@H](Cc1ccccc1)NC(=O)[C@@H](N)CC(=O)O (H-Asp-Phe-OMe) class 0

# outcome recorded in this test, key = "C1CNCCN1" class 0

# outcome recorded in this test, key = "Nc1nc(N)nc(-c2ccccc2)n1" class 0

Others:
# outcome recorded in this test, key = "c1ccc(Nc2cccc3ccccc23)cc1" class 0

# outcome recorded in this test, key = "CCCCCCCCCCCC(=O)N(C)CC(=O)O" class 1

---

# TARGET_OF_ASSAY: Estrogen receptor (Homo sapiens)
# ASSAY_PROTOCOL: ATG_ERa_TRANS: Attagene TRANS-FACTORIAL HepG2 Assay for human Estrogen Receptor alpha (ERa) (AID 2282970)
# RUN_CONDITIONS: HepG2 Attagene TRANS ERa GAL4 reporter, mRNA
Results filed as inconclusive are left out. The source made the active and inactive calls. Rule for the calls: active = hit-call score of the fitted dose curve at least 0.9, where 1 is the maximum; inconclusive = response in the unintended direction; inactive = score below 0.9.
Hi! Could you answer with just one of these? true (active), false (inactive)

# outcome recorded in this test, key = "CCCCCCOc1ccc(N)cc1" false

# outcome recorded in this test, key = "O=C(O)CCCC(=O)O" false

# outcome recorded in this test, key = "CN1CCN(C)CC1" false

# outcome recorded in this test, key = "CCCSSCCC" false

# outcome recorded in this test, key = "Oc1ccccc1Cc1ccccc1O" true

# outcome recorded in this test, key = "C=Cc1cccc(C)c1" false

# outcome recorded in this test, key = "Cc1ccc2c(c1)CCCN2" false

# outcome recorded in this test, key = "c1ccc2c(c1)[nH]c1ccccc12" false

Others:
# outcome recorded in this test, key = CCC(C)C(=O)OCCc1ccccc1 (configuration not stated) false

# outcome recorded in this test, key = "Cc1cccc(C(C)(C)C)c1O" false

# outcome recorded in this test, key = CCc1cccc(C)c1N(C(=O)CS(=O)(=O)O)C(C)COC (configuration not stated) true

# outcome recorded in this test, key = "COC(Cc1ccccc1)OC" false

# outcome recorded in this test, key = "CCc1occc(=O)c1O" false

# outcome recorded in this test, key = "CCCCC(=O)O" false

# outcome recorded in this test, key = "CCN(CC)c1cccc(C)c1" false

# outcome recorded in this test, key = "CC(C)CCOCc1ccccc1" false

# outcome recorded in this test, key = "CCNc1nc(NC(C)(C)C)nc(OC)n1" false
